B1: tRNA (parent)
chain: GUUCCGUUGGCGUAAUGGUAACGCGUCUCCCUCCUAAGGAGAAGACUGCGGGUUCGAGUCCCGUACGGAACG

- Variants of: B1
- assay-method-text: yeast fitness relative to wild type (ratio to wild type); higher = fitter; tRNA-Arg(CCU), competitive growth, 37 C, YPD
This sample holds only a part of the variants without activity.
# key: entry, value: yeast fitness
The answer should be written as a number, with no unit following it.

Solved cases below.
variant_annotation="G9C U19G" numeric_readout=0.502
variant_annotation="C30G C49A U53C" numeric_readout=0.563
variant_annotation="C61U G67A" numeric_readout=0.649
variant_annotation="A37C G44C" numeric_readout=0.758
variant_annotation="C46A C49U" numeric_readout=0.958

Please fill in: yeast fitness reported for U13A A37U = 0.63

According to the records, this variant A20G C24G C27U A40C displays yeast fitness of 0.532

Per the record, A69G A70C has yeast fitness of 0.896

Noted for U26G C31U G68C : its yeast fitness reads 0.636

# yeast fitness of C11U C66A = 0.65

Briefly, yeast fitness measured for U7G G12C G23C C29G : 0.739

Entry U3C A20C C46U ; yeast fitness = 1.06

Form field yeast fitness, entry U2A G48A : 0.978

Recorded yeast fitness (variant A20G C30A A69C ): 0.752

The variant identified as C30U U47A registered its yeast fitness at 0.695

Measured yeast fitness, U3G C46A : 0.802

The recorded yeast fitness for C4U C46G C61G A65C is 0.588

# yeast fitness of A43G G48C C55G = 0.597

// yeast fitness value for U53C G68C : 0.846

G48A G56C A65G has a reported yeast fitness of 0.543

Origin of values: the RNAGym collection of RNA variant scans (doi:10.1126/science.aae0568)
